Answer each item with its documented concentration at 15 min.
- ASSAY PROCEDURE: Compound plasma concentrations in unsensitized mice at 15 min post administration
- Type: in vivo
- RUN CONDITIONS: mouse, 15 μmol/kg; mean compound plasma concentration in mice at 15 minutes post oral administration; read-out: Mouse Oral PK
Please respond with the number in nM and leave the unit unwritten.

Request: Item CCS(=O)(=O)Nc1cc(CN2CCC[C@@H](Nc3ccc4[nH]ncc4c3)C2)ccc1C : provide concentration at 15 min
Response: 264

Request: Item CCS(=O)(=O)Nc1cc(CN2CC[C@@H](Nc3cccc4cnccc34)C2)ccc1C : provide concentration at 15 min
Response: 765

Request: Item CCCS(=O)(=O)Nc1cc(CN2CCC[C@H](Nc3ccc4[nH]ncc4c3)C2)ccc1C : provide concentration at 15 min
Response: 48

Request: Item COc1ccc(CN2CCC[C@H](Nc3ccc4[nH]ncc4c3)C2)cc1 : provide concentration at 15 min
Response: 2440

Request: Item NC(=O)COc1cccc(CN2CCC[C@H](Nc3ccc4[nH]ncc4c3)C2)c1 : provide concentration at 15 min
Response: 108

Request: Item CCS(=O)(=O)Nc1cccc(CN2CC[C@@H](Nc3cccc4cnccc34)C2)c1 : provide concentration at 15 min
Response: 987

Request: Item c1cc2ccc(CN3CCC[C@H](Nc4ccc5[nH]ncc5c4)C3)cc2[nH]1 : provide concentration at 15 min
Response: 767

Request: Item NC(=O)c1cccc(CN2CCC[C@H](Nc3ccc4[nH]ncc4c3)C2)c1 : provide concentration at 15 min
Response: 1680

====

- SYSTEM NAME: ROCK1 (Homo sapiens)
- Construct: purchased Upstate/Chemicon 14-601
- ASSAY PROCEDURE: Rho kinase inhibition assay (IMAP fluorescence polarization), ROCK1
- Type: biochemical
- RUN CONDITIONS: Avg, 10 μM ATP
pKi: −log10 of the molar value.
Values of pKi greater than or equal to 7 map to 1; values below map to 0.

Request: hey, is pKi for this one >= 7? CS(=O)(=O)Nc1cc(CN2CCC[C@@H](Nc3ccc4[nH]ncc4c3)C2)ccc1Cl
Response: 1

Request: hey, is pKi for this one >= 7? C[C@@H](O)COc1cccc(CN2CCC[C@@H](Nc3ccc4[nH]ncc4c3)C2)c1
Response: 0

Request: hey, is pKi for this one >= 7? c1cc2cc(CN3CCC[C@@H](Nc4ccc5[nH]ncc5c4)C3)ccc2s1
Response: 1

Request: hey, is pKi for this one >= 7? OCCCOc1cccc(CN2CCC[C@@H](Nc3ccc4[nH]ncc4c3)C2)c1
Response: 0

Request: hey, is pKi for this one >= 7? CS(=O)(=O)Nc1cccc(CN2CC[C@H](Nc3ccc4[nH]ncc4c3)C2)c1
Response: 0

Request: hey, is pKi for this one >= 7? NC(=O)COc1cccc(CN2CC[C@@H](Nc3cccc4cnccc34)C2)c1
Response: 1

====

- SYSTEM NAME: p70S6K human enzyme (Homo sapiens, UniProt P23443, T412E)
- Construct: purchased Upstate Chemicon 14-486
- Sequence (P23443 1-421 T412E limits assumed): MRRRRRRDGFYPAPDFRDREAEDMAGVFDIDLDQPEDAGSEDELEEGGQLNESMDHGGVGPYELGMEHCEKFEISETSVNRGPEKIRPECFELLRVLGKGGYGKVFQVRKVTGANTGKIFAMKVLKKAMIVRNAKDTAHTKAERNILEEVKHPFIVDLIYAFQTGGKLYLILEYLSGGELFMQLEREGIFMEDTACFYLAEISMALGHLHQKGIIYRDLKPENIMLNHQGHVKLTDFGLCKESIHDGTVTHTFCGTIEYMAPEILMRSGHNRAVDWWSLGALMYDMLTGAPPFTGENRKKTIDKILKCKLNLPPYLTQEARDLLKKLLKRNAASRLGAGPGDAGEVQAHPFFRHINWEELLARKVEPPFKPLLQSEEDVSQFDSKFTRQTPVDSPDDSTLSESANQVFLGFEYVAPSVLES
- ASSAY PROCEDURE: p70S6K inhibition assay (IMAP FP)
- Type: biochemical
- RUN CONDITIONS: 30 μM ATP; Ki=IC50/(1+([ATP Challenge]/EC50 ATP)); read-out: p70S6K Ki, Avg
ATTRIBUTE MEASURED: pKi
Schema: pKi number; meaning minus log10 of the concentration expressed in molar units.

Request: Item Cc1ccc(CN2CCC[C@H](Nc3ccc4[nH]ncc4c3)C2)cc1O [Compound 1.151] : provide pKi
Response: 6.28

Request: Item C#Cc1cccc(CN2CCC[C@H](Nc3ccc4[nH]ncc4c3)C2)c1 [Compound 1.153] : provide pKi
Response: 5.62

Request: Item C#Cc1ccc(CN2CCC[C@H](Nc3ccc4[nH]ncc4c3)C2)cc1 [Compound 1.077] : provide pKi
Response: 6.15

Request: Item CCS(=O)(=O)Nc1cc(CN2CCC[C@H](Nc3ccc4[nH]ncc4c3)C2)ccc1C [Compound 1.253] : provide pKi
Response: 5.60

====

Answer each item with its documented Ki.
- SYSTEM NAME: p70S6K human enzyme (Homo sapiens, UniProt P23443, T412E)
- Construct: purchased Upstate Chemicon 14-486
- ASSAY PROCEDURE: p70S6K inhibition assay (IMAP FP);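 further: kinase reaction run at room temperature, phosphorylated substrate captured on IMAP beads and read as fluorescence polarization in mP, IC50 then converted to Ki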
- Assay type: biochemical
- RUN CONDITIONS: 30 μM ATP; Ki=IC50/(1+([ATP Challenge]/EC50 ATP)); read-out: p70S6K Ki, Avg
Please respond with the number in nM and leave the unit unwritten.

Request: Item c1cc2c(cc1CN1CCC[C@@H](Nc3ccc4[nH]ncc4c3)C1)CCO2 : provide Ki
Response: 1880

Request: Item Clc1ccc(CN2CCC[C@H](Nc3ccc4[nH]ncc4c3)C2)cc1 : provide Ki
Response: 387

Request: Item Clc1ccc(CN2CC[C@@H](Nc3cccc4cnccc34)C2)cc1 : provide Ki
Response: 509

Request: Item c1cc(N[C@@H]2CCN(Cc3ccc(C4CC4)cc3)C2)c2ccncc2c1 : provide Ki
Response: 501

Request: Item CC(C)c1ccc(CN2CCC[C@@H](Nc3ccc4[nH]ncc4c3)C2)cc1 : provide Ki
Response: 927

====

Answer each item with its documented pKi.
- SYSTEM NAME: ROCK1 (Homo sapiens, UniProt Q13464)
- Construct: purchased Upstate/Chemicon 14-601
- Sequence (Q13464 17-535 limits assumed): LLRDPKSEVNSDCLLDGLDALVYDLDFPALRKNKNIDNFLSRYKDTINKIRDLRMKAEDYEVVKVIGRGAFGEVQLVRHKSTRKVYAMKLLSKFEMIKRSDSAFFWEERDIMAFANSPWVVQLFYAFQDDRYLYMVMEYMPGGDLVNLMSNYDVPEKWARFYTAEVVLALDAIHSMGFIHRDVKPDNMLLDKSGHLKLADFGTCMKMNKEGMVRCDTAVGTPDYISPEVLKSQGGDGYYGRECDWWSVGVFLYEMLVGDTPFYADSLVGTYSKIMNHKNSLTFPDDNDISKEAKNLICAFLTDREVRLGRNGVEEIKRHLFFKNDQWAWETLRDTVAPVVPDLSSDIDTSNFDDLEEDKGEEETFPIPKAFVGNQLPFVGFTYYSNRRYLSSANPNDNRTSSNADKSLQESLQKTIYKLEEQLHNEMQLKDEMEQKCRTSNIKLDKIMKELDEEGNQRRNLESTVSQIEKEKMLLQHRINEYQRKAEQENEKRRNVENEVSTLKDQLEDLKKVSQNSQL
- ASSAY PROCEDURE: Rho kinase inhibition assay (IMAP fluorescence polarization), ROCK1;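 further: kinase reaction run 60 min at room temperature, then phosphorylated substrate captured on IMAP beads for 30 min, with fluorescence polarization read in mP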
- Assay type: biochemical
- RUN CONDITIONS: Avg, 10 μM ATP
Schema: pKi number; meaning minus log10 of the concentration expressed in molar units.

Request: Item O=C(O)COc1cccc(CN2CC[C@@H](Nc3cccc4cnccc34)C2)c1 [Compound 2.044] : provide pKi
Response: 7.09

Request: Item CS(=O)(=O)N1CCCc2cc(CN3CC[C@@H](Nc4cccc5cnccc45)C3)ccc21 [Compound 2.070] : provide pKi
Response: 6.54

Request: Item Cc1c(CN2CCC[C@H](Nc3ccc4[nH]ncc4c3)C2)cccc1NS(C)(=O)=O [Compound 1.274] : provide pKi
Response: 6.65

Request: Item c1cc(CN2CCC[C@H](Nc3ccc4[nH]ncc4c3)C2)cc(C2CC2)c1 [Compound 1.186] : provide pKi
Response: 6.89

Request: Item CCS(=O)(=O)Nc1cccc(CN2CCC[C@H](Nc3ccc4[nH]ncc4c3)C2)c1 [Compound 1.124] : provide pKi
Response: 7.19

Request: Item CSc1nccc(CN2CC[C@@H](Nc3cccc4cnccc34)C2)n1 [Compound 2.082] : provide pKi
Response: 6.88

Request: Item c1cc(N[C@@H]2CCN(Cc3cncnc3)C2)c2ccncc2c1 [Compound 2.084] : provide pKi
Response: 5.93

Request: Item O=C(O)COc1cccc(CN2CCC[C@H](Nc3ccc4[nH]ncc4c3)C2)c1 [Compound 1.196] : provide pKi
Response: 6.15

====

- SYSTEM NAME: Akt3 human enzyme (Homo sapiens, UniProt Q9Y243)
- Construct: purchased Upstate Chemicon 14-502
- Sequence (Q9Y243 whole entry): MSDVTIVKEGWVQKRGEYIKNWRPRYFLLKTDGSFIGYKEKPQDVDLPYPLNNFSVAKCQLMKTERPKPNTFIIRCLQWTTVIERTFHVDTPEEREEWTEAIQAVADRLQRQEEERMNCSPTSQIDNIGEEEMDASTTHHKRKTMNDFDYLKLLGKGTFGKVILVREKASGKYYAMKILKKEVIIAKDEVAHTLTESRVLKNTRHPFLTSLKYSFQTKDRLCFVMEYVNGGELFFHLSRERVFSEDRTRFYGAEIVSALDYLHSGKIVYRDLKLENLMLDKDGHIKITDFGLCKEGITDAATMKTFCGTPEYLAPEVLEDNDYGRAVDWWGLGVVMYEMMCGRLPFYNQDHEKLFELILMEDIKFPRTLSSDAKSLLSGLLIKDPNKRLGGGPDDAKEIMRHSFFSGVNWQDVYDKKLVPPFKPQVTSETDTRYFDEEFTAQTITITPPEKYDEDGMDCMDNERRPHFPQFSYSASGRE
- ASSAY PROCEDURE: Akt3 inhibition assay (IMAP FP);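 further: kinase reaction run 60 min at room temperature after 30 µM ATP start, phosphorylated substrate captured on IMAP beads and read as fluorescence polarization (mP)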
- Format: biochemical
- RUN CONDITIONS: average Ki; read-out: Akt3 Ki
ATTRIBUTE MEASURED: pKi
Schema: pKi number; meaning minus log10 of the concentration expressed in molar units.

Request: Item c1cc(CN2CCC[C@H](Nc3ccc4[nH]ncc4c3)C2)cc(C2CC2)c1 : provide pKi
Response: 4.99

Request: Item CSc1cccc(CN2CCC[C@H](Nc3ccc4[nH]ncc4c3)C2)c1 : provide pKi
Response: 5.23

Request: Item c1cc2cc(CN3CCC[C@H](Nc4ccc5[nH]ncc5c4)C3)ccc2[nH]1 : provide pKi
Response: 5.13

Request: Item NS(=O)(=O)c1cccc(CN2CCC[C@H](Nc3ccc4[nH]ncc4c3)C2)c1 : provide pKi
Response: 5.32

Request: Item CCCCS(=O)(=O)Nc1cc(CN2CCC[C@H](Nc3ccc4[nH]ncc4c3)C2)ccc1C : provide pKi
Response: 5.43

Request: Item COc1ccc(CN2CC[C@@H](Nc3cccc4cnccc34)C2)cc1 : provide pKi
Response: 5.71

Request: Item NC(=O)Cn1ccc2ccc(CN3CC[C@@H](Nc4cccc5cnccc45)C3)cc21 : provide pKi
Response: 5.71

Request: Item NC(=O)Cn1ccc2cc(CN3CC[C@@H](Nc4cccc5cnccc45)C3)ccc21 : provide pKi
Response: 6.92

Request: Item c1cc2cc(CN3CCC[C@H](Nc4ccc5[nH]ncc5c4)C3)ccc2s1 : provide pKi
Response: 5.55

Request: Item c1ccc2c(CN3CCC[C@@H](Nc4ccc5[nH]ncc5c4)C3)c[nH]c2c1 : provide pKi
Response: 6.69

Request: Item OCc1ccc(CN2CCC[C@H](Nc3ccc4[nH]ncc4c3)C2)cc1 : provide pKi
Response: 4.95

Request: Item Clc1ccc(CN2CCC[C@@H](Nc3ccc4[nH]ncc4c3)C2)cc1 : provide pKi
Response: 7.09

Request: Item NC(=O)Cn1ccc2cc(CN3CCC[C@H](Nc4ccc5[nH]ncc5c4)C3)ccc21 : provide pKi
Response: 5.38

Request: Item Cc1ccc(CN2CCC[C@H](Nc3ccc4[nH]ncc4c3)C2)cc1NS(C)(=O)=O : provide pKi
Response: 5.58

Request: Item Clc1ccc(CN2CCC[C@H](Nc3ccc4[nH]ncc4c3)C2)cc1 : provide pKi
Response: 5.90

Request: Item c1cc2c(cc1CN1CCC[C@H](Nc3ccc4[nH]ncc4c3)C1)OCCO2 : provide pKi
Response: 4.74

Request: Item NC(=O)Cn1ccc2cc(CN3CCC[C@@H](Nc4ccc5[nH]ncc5c4)C3)ccc21 : provide pKi
Response: 7.04

Request: Item CSc1ccc(CN2CCC[C@H](Nc3ccc4[nH]ncc4c3)C2)cc1 : provide pKi
Response: 5.27

Request: Item CCCS(=O)(=O)Nc1cc(CN2CCC[C@H](Nc3ccc4[nH]ncc4c3)C2)ccc1C : provide pKi
Response: 5.38

Request: Item Cc1ccc(S(=O)(=O)Nc2cc(CN3CCC[C@H](Nc4ccc5[nH]ncc5c4)C3)ccc2C)cc1 : provide pKi
Response: 4.75

Request: Item Cc1ccc(CN2CCC[C@@H](Nc3ccc4[nH]ncc4c3)C2)cc1 : provide pKi
Response: 6.83

Request: Item Oc1cccc(CN2CCC[C@H](Nc3ccc4[nH]ncc4c3)C2)c1 : provide pKi
Response: 5.35

Request: Item Cc1cccc(CN2CCC[C@H](Nc3ccc4[nH]ncc4c3)C2)c1 : provide pKi
Response: 5.03

Request: Item COc1ccc(CN2CCC[C@H](Nc3ccc4[nH]ncc4c3)C2)cc1 : provide pKi
Response: 5.14

Request: Item Cc1ccc(CN2CCC[C@H](Nc3ccc4[nH]ncc4c3)C2)cc1OCCO : provide pKi
Response: 5.70

Request: Item NC(=O)COc1cccc(CN2CCC[C@H](Nc3ccc4[nH]ncc4c3)C2)c1 : provide pKi
Response: 4.66

Request: Item Fc1ccc(CN2CCC[C@H](Nc3ccc4[nH]ncc4c3)C2)cc1 : provide pKi
Response: 5.37

Request: Item Cc1cccc(CN2CCC[C@H](Nc3ccc4[nH]ncc4c3)C2)c1C : provide pKi
Response: 5.06

Request: Item Cc1ccc(CN2CCC[C@@H](Nc3ccc4[nH]ncc4c3)C2)c(C)c1 : provide pKi
Response: 6.70

Request: Item NS(=O)(=O)c1cccc(CN2CCC[C@@H](Nc3ccc4[nH]ncc4c3)C2)c1 : provide pKi
Response: 5.80

Request: Item CS(=O)(=O)Nc1cccc(CN2CCC[C@@H](Nc3ccc4[nH]ncc4c3)C2)c1 : provide pKi
Response: 5.74

Request: Item CCOC(=O)COc1cccc(CN2CCC[C@H](Nc3ccc4[nH]ncc4c3)C2)c1 : provide pKi
Response: 4.97

Request: Item CS(=O)(=O)Nc1cccc(CN2CCCC(Nc3ccc4[nH]ncc4c3)C2)c1 (stereo in doubt) : provide pKi
Response: 5.27
